# System Tested: Beta-adrenergic receptor kinase 1 (Homo sapiens)
# Test: GRK2 binders displacing RNA aptamer, biochemical, validation, human GRK2, bead flow cytometry (AID 488806)
# Condition Info: bead-bound GRK2, FAM-aptamer displacement, at 10 µM, active compounds read high
Observable: aptamer binding inhibition (%)

- Compound: "CCC(=O)Oc1ccc(/C(CC)=C(\\CC)c2ccc(OC(=O)CC)cc2)cc1"
  System Tested: "Beta-adrenergic receptor kinase 1 (Homo sapiens)"
  Data Value: 3
- Compound: "O=C(O)c1cc(-c2ccc3c(c2)OCO3)nc2ccc(Br)cc12"
  System Tested: "Beta-adrenergic receptor kinase 1 (Homo sapiens)"
  Data Value: -3
- Compound: "COc1ccc(CCn2c(C)cc3c(c2=O)C(c2ccncc2)C(C#N)=C(N)O3)cc1OC (configuration not stated)"
  System Tested: "Beta-adrenergic receptor kinase 1 (Homo sapiens)"
  Data Value: 6
- Compound: "CC1CNCCN1S(=O)(=O)c1cccc2cnccc12 (configuration not stated)"
  System Tested: "Beta-adrenergic receptor kinase 1 (Homo sapiens)"
  Data Value: 3
- Compound: "C=C(C)COc1ccc(-c2nc(N)ncc2-c2ccc(OC)cc2)c(O)c1"
  System Tested: "Beta-adrenergic receptor kinase 1 (Homo sapiens)"
  Data Value: 1
- Compound: "CC(=O)Oc1cc(C(C)C)c(OCCN(C)C)cc1C"
  System Tested: "Beta-adrenergic receptor kinase 1 (Homo sapiens)"
  Data Value: 6
- Compound: "CC12CCC(C(=O)N3CCCCC3)([C@H](Br)C1=O)C2(C)C (some centres not stated)"
  System Tested: "Beta-adrenergic receptor kinase 1 (Homo sapiens)"
  Data Value: -1
- Compound: "COc1cc2ccc(=O)oc2c(O)c1OCC=C(C)C"
  System Tested: "Beta-adrenergic receptor kinase 1 (Homo sapiens)"
  Data Value: -1
- Compound: "CC(C)CC(=O)OC1C(N2CCOCC2)c2c(ccc(/C=C/C(=O)N3CCOCC3)c2O)OC1(C)C (configuration not stated)"
  System Tested: "Beta-adrenergic receptor kinase 1 (Homo sapiens)"
  Data Value: -1
- Compound: "Oc1ccc(Cl)cc1Cc1cc(Cl)ccc1O"
  System Tested: "Beta-adrenergic receptor kinase 1 (Homo sapiens)"
  Data Value: 3
- Compound: "CCc1cc2c3c(c(=O)oc2cc1O)CCCC3"
  System Tested: "Beta-adrenergic receptor kinase 1 (Homo sapiens)"
  Data Value: 1
- Compound: "OC[C@H]1O[C@@H](n2cnc3c(NC4CCCC4)ncnc32)[C@H](O)[C@@H]1O"
  System Tested: "Beta-adrenergic receptor kinase 1 (Homo sapiens)"
  Data Value: 4
- Compound: "CC1CCCc2sc3ncn(N)c(=N)c3c21 (configuration not stated)"
  System Tested: "Beta-adrenergic receptor kinase 1 (Homo sapiens)"
  Data Value: 4
- Compound: "CO[C@@H]1O[C@@H]2COC(c3ccccc3)O[C@@H]2[C@@H](OC)[C@@H]1O (some centres not stated)"
  System Tested: "Beta-adrenergic receptor kinase 1 (Homo sapiens)"
  Data Value: 5
- Compound: "Cc1csc(-c2coc3cc(O)cc(C)c3c2=O)n1"
  System Tested: "Beta-adrenergic receptor kinase 1 (Homo sapiens)"
  Data Value: 2
- Compound: "CCCCC[C@H](O)/C=C/[C@@H]1[C@@H](C/C=C\\CCCC(=O)OC)[C@@H](O)C[C@H]1O"
  System Tested: "Beta-adrenergic receptor kinase 1 (Homo sapiens)"
  Data Value: 12
- Compound: "CC(COc1ccccc1)N(CCCl)Cc1ccccc1 (configuration not stated)"
  System Tested: "Beta-adrenergic receptor kinase 1 (Homo sapiens)"
  Data Value: 2
- Compound: "O=P(c1ccccc1)(c1ccccc1)c1nc(-c2ccc(Cl)cc2)oc1N1CCOCC1"
  System Tested: "Beta-adrenergic receptor kinase 1 (Homo sapiens)"
  Data Value: 2
- Compound: "CC(=O)O[C@]1(C(C)=O)CC[C@H]2[C@@H]3C=C(Cl)C4=CC(=O)CC[C@]4(C)[C@H]3CC[C@@]21C"
  System Tested: "Beta-adrenergic receptor kinase 1 (Homo sapiens)"
  Data Value: -1
- Compound: "c1ccc2c3c(c(CN4CCCCC4)cc2c1)COC3"
  System Tested: "Beta-adrenergic receptor kinase 1 (Homo sapiens)"
  Data Value: -6
- Compound: "O=C(/C=C/c1ccc2c(c1)OCO2)c1ccccn1"
  System Tested: "Beta-adrenergic receptor kinase 1 (Homo sapiens)"
  Data Value: 1
- Compound: "O=C(NCc1ccccc1Cl)NC(=O)c1ccccc1"
  System Tested: "Beta-adrenergic receptor kinase 1 (Homo sapiens)"
  Data Value: 4
- Compound: "Cc1c(OC(=O)CNC(=O)OC(C)(C)C)ccc2c3c(c(=O)oc12)CCC3"
  System Tested: "Beta-adrenergic receptor kinase 1 (Homo sapiens)"
  Data Value: -1
- Compound: "c1ccc2c(c1)CCCC2C1=NCCN1 (configuration not stated)"
  System Tested: "Beta-adrenergic receptor kinase 1 (Homo sapiens)"
  Data Value: -1
- Compound: "CC(=O)OCC(=O)[C@@]1(OC(C)=O)[C@@H](C)C[C@H]2[C@@H]3C[C@H](F)C4=CC(=O)C=C[C@]4(C)[C@@]3(F)[C@@H](O)C[C@@]21C"
  System Tested: "Beta-adrenergic receptor kinase 1 (Homo sapiens)"
  Data Value: -1
- Compound: "CCOC(=O)COc1ccc2c(=O)c(-c3ccccc3)coc2c1"
  System Tested: "Beta-adrenergic receptor kinase 1 (Homo sapiens)"
  Data Value: 0
- Compound: "CC(=Nc1ccccc1)C1=C(O)CCCC1=O"
  System Tested: "Beta-adrenergic receptor kinase 1 (Homo sapiens)"
  Data Value: 1
- Compound: "N/C(=N/OS(=O)(=O)c1ccc([N+](=O)[O-])cc1)c1ccncc1"
  System Tested: "Beta-adrenergic receptor kinase 1 (Homo sapiens)"
  Data Value: 1
- Compound: "COc1cc(OC)c(C(=O)CCCN2CCCC2)c(OC)c1"
  System Tested: "Beta-adrenergic receptor kinase 1 (Homo sapiens)"
  Data Value: 4
- Compound: "Cc1cnc(C(=O)N2CCCC(C(=O)c3ccc(Cl)cc3C)C2)cn1 (configuration not stated)"
  System Tested: "Beta-adrenergic receptor kinase 1 (Homo sapiens)"
  Data Value: 2
- Compound: "CCOc1ccc(C(=O)Nc2ccc(N3CCN(C(C)=O)CC3)cc2)cc1[N+](=O)[O-]"
  System Tested: "Beta-adrenergic receptor kinase 1 (Homo sapiens)"
  Data Value: 3
- Compound: "C[N+]12CCCCC1C(COC(=O)c1ccc3c(c1)OCO3)CCC2 (configuration not stated)"
  System Tested: "Beta-adrenergic receptor kinase 1 (Homo sapiens)"
  Data Value: 5

----------
# Test: LAP4-GFP expression modulators in yeast, confirmation, cell-based, cherry picks, flow cytometry, mother/daughter gates (AID 2271);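 note: ratio of sample to DMSO plate mean so 100% equals DMSO level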
# Condition Info: S. cerevisiae LAP4-GFP strain, 3 h, at 10 µM, 100 means same as DMSO control
Calls of active or inactive are those of the source.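 The calls were made as follows: active = GFP response above 150% of the DMSO control; inconclusive = fewer than 70 events counted in any yeast strain; inactive = the rest.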
Classes used: 1 (active), -1 (inactive)

- Compound: "Cc1nonc1C(=O)N/N=C/c1ccc([N+](=O)[O-])o1"
  Answer Label: -1
- Compound: "N=C1/C(=C\\c2ccc(Br)o2)C(=O)N=C2SC(CC(=O)N3CCCCC3)=NN12"
  Answer Label: -1
- Compound: "COc1ccc(C2CC(c3ccccc3)=NN2S(=O)(=O)c2ccccc2)c(OC)c1 (stereo unspecified)"
  Answer Label: -1
- Compound: "O=C(Nc1ccc(Cl)cc1Cl)c1cccc(N2C(=O)C=CC2=O)c1"
  Answer Label: 1
- Compound: "COC(CNC(=O)c1ccc2c3c(onc13)-c1ccccc1C2=O)OC"
  Answer Label: 1
- Compound: "Cc1n[nH]c(C)c1N1C(=O)c2cccc3cc(Br)cc(c23)C1=O"
  Answer Label: -1
- Compound: "O=S(=O)(c1ccccc1)N1N=C(c2cccs2)CC1c1ccc(F)cc1 (stereo unspecified)"
  Answer Label: -1
- Compound: "N=c1ccn(CC(=O)c2ccc(-c3ccccc3)cc2)cc1"
  Answer Label: -1
- Compound: "O=C(NCCCSc1ccccc1)c1cc(Br)ccc1O"
  Answer Label: -1
- Compound: "O=C1CC(SCc2nc3ccccc3[nH]2)C(=O)N1c1ccc(F)cc1 (stereo unspecified)"
  Answer Label: -1
- Compound: "CC(=O)Oc1ccc(N2C(=O)C3C4C=CC(O4)C3C2=O)cc1 (stereo unspecified)"
  Answer Label: -1
